# credit: patent US20220143061A1

Give measured pEC50 for each item. Keep answers brief.
target: human wild type STING (WT STING) (Homo sapiens, UniProt Q86WV6, H232R)
Construct: host or cells: 293T cells (ATCC CRL-3216), stably double transfected with pUNO1-hSTING-WT and pGL64.27-4×ISRE
Sequence (Q86WV6 whole entry H232R): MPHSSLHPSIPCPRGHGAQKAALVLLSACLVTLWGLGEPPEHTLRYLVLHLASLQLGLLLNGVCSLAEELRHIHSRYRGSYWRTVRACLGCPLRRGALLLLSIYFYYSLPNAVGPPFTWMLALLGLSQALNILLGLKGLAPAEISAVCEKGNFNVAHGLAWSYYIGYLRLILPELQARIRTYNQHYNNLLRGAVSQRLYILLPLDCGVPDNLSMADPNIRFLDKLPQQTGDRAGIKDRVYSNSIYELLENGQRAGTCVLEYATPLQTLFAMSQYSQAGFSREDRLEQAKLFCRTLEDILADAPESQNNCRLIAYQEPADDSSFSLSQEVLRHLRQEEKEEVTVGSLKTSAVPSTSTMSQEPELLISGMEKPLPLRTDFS
protocolSummary: 293T WT STING standard reporter assay
Format: cell-based
runParameters: 293T WT STING EC50, 293T wtSTING-FL cells, no digitonin, 7 hours; ISRE firefly luciferase
Numbers only, as −log10 of the molar value.

Here is how some molecules turned out for pEC50.
* CC(C)(C)C(=O)OCSP1(=O)CO[C@H]2[C@@H](F)[C@H](n3cnc4c(N)ncnc43)O[C@@H]2COP(=O)(SCOC(=O)C(C)(C)C)O[C@H]2[C@@H](F)[C@H](n3cnc4c(N)ncnc43)O[C@@H]2CO1 (single isomer, unassigned) [Compound 39a] | 5.96
* CC(C)(C)C(=O)OCSP1(=O)CO[C@H]2[C@@H](F)[C@H](n3cnc4c(N)ncnc43)O[C@@H]2COP(=O)(SCOC(=O)C(C)(C)C)O[C@H]2[C@@H](F)[C@H](n3cnc4c(N)ncnc43)O[C@@H]2CO1 (single isomer, unassigned) [Compound 39c] | 7.52
* CC(C)(C)C(=O)OCSP1(=O)CO[C@H]2[C@@H](F)[C@H](n3cnc4c(N)ncnc43)O[C@@H]2COP(=O)(SCOC(=O)C(C)(C)C)O[C@H]2[C@@H](F)[C@H](n3cnc4c(N)ncnc43)O[C@@H]2CO1 (single isomer, unassigned) [Compound 39b] | 7.70
* CC(C)OC(=O)OCSP1(=O)CO[C@H]2[C@@H](F)[C@H](n3cnc4c(N)ncnc43)O[C@@H]2COP(=O)(SCOC(=O)OC(C)C)O[C@H]2[C@@H](F)[C@H](n3cnc4c(N)ncnc43)O[C@@H]2CO1 (single isomer, unassigned) [Compound 40c] | 5.41
* CC(C)OC(=O)OCSP1(=O)CO[C@H]2[C@@H](F)[C@H](n3cnc4c(N)ncnc43)O[C@@H]2COP(=O)(SCOC(=O)OC(C)C)O[C@H]2[C@@H](F)[C@H](n3cnc4c(N)ncnc43)O[C@@H]2CO1 (single isomer, unassigned) [Compound 40b] | 5.92
* CCCCCCCCCCCC(=O)OCSP1(=O)CO[C@H]2[C@@H](F)[C@H](n3cnc4c(N)ncnc43)O[C@@H]2COP(=O)(SCOC(=O)CCCCCCCCCCC)O[C@H]2[C@@H](F)[C@H](n3cnc4c(N)ncnc43)O[C@@H]2CO1 (single isomer, unassigned) [Compound 43c] | 7.22

Measured pEC50, CCCCCCCCCCCC(=O)OCSP1(=O)CO[C@H]2[C@@H](F)[C@H](n3cnc4c(N)ncnc43)O[C@@H]2COP(=O)(SCOC(=O)CCCCCCCCCCC)O[C@H]2[C@@H](F)[C@H](n3cnc4c(N)ncnc43)O[C@@H]2CO1 (single isomer, unassigned) [Compound 43b] : 7.52

* * *

target: human wild type STING (WT STING) (Homo sapiens, UniProt Q86WV6, H232R)
Construct: host or cells: 293T cells (ATCC CRL-3216), stably double transfected with pUNO1-hSTING-WT and pGL64.27-4×ISRE
protocolSummary: 293T WT STING standard reporter assay
Assay type: cell-based
runParameters: 293T wtSTING-FL cells, no digitonin, 7 hours; ISRE firefly luciferase; read-out: 293T WT STING EC50
Give measured pEC50 for each item. Keep answers brief.
Give bare numbers, as −log10 of the molar value.

Here is how some compounds turned out for pEC50.
- CC(C)(C)C(=O)OCOP1(=O)CO[C@H]2[C@@H](F)[C@H](n3cnc4c(N)ncnc43)O[C@@H]2COP(=O)(OCOC(=O)C(C)(C)C)O[C@H]2[C@@H](F)[C@H](n3cnc4c(N)ncnc43)O[C@@H]2CO1 (single isomer, unassigned) [Compound 41c]: 7.96
- CCCCCCCC(=O)OCOP1(=O)CO[C@H]2[C@@H](F)[C@H](n3cnc4c(N)ncnc43)O[C@@H]2COP(=O)(OCOC(=O)CCCCCCC)O[C@H]2[C@@H](F)[C@H](n3cnc4c(N)ncnc43)O[C@@H]2CO1 (mixture of isomers) [Compound 46b]: 8.70

Measured pEC50, Nc1nc2c(ncn2[C@@H]2O[C@@H]3COP(=O)(O)O[C@@H]4[C@H](O)[C@@H](COP(=O)(O)O[C@@H]2[C@@H]3O)O[C@H]4n2cnc3c(N)ncnc32)c(=O)[nH]1 [2′2′-cGAMP, reference compound] : 4.99

* * *

System: peripheral blood mononuclear cell (PBMC)
protocolSummary: Peripheral blood mononuclear cell assay (cytokine levels)
Assay type: cell-based
runParameters: 1 h with compound, wash, 15 hour incubation, average of one to four donors, read-out: PBMC EC50 IFN-γ
Method: Selected compounds were tested in an in vitro peripheral blood mononuclear cell (PBMC) assay. […] Serially diluted tested compounds were added to wells in 50 μl of cultivation medium and cell were incubated with compounds for 1 h at 37° C. with 5% CO2. Plates with cells were then spun 500 g for 5 minutes and medium was removed. Cells were washed twice with the cell culture medium by the use of centrifugation and gently resuspended in 100 μl medium without compounds. […]
measuredEndpoint: log10(EC50) (log10 of the value in µM)
Scale: log10; quantity: EC50; unit before log: µM

- Nc1ncnc2c1ncn2[C@@H]1O[C@@H]2COP(=O)(S)O[C@H]3[C@@H](F)[C@H](n4cnc5c(N)ncnc54)O[C@@H]3COP(=O)(S)CO[C@H]2[C@H]1F (single isomer, unassigned) [Compound 14b]: 1.52

State recorded log10(EC50) for all listed molecules.
1. CCC(C)(C)C(=O)OCOP1(=O)CO[C@H]2[C@@H](F)[C@H](n3cnc4c(N)ncnc43)O[C@@H]2COP(=O)(OCOC(=O)C(C)(C)CC)O[C@H]2[C@@H](F)[C@H](n3cnc4c(N)ncnc43)O[C@@H]2CO1 (mixture of isomers) [Compound 44b]
2. Nc1ncnc2c1ncn2[C@@H]1O[C@@H]2COP(=O)(O)O[C@H]3[C@@H](F)[C@H](n4cnc5c(N)ncnc54)O[C@@H]3COP(=O)(O)CO[C@H]2[C@H]1F

### Response
1. -0.70
2. 1.41

State recorded log10(EC50) for all listed molecules.
1. Nc1ncnc2c1ncn2[C@@H]1O[C@@H]2COP(=O)(S)O[C@H]3[C@@H](F)[C@H](n4cnc5c(N)ncnc54)O[C@@H]3COP(=O)(S)CO[C@H]2[C@H]1F (single isomer, unassigned) [Compound 14c]
2. CC(C)OC(=O)OCOP1(=O)CO[C@H]2[C@@H](F)[C@H](n3cnc4c(N)ncnc43)O[C@@H]2COP(=O)(OCOC(=O)OC(C)C)O[C@H]2[C@@H](F)[C@H](n3cnc4c(N)ncnc43)O[C@@H]2CO1 (mixture of isomers) [Compound 42b]
3. CCC(C)(C)C(=O)OCOP1(=O)CO[C@H]2[C@@H](F)[C@H](n3cnc4c(N)ncnc43)O[C@@H]2COP(=O)(OCOC(=O)C(C)(C)CC)O[C@H]2[C@@H](F)[C@H](n3cnc4c(N)ncnc43)O[C@@H]2CO1 (single isomer, unassigned) [Compound 44a]

### Response
[1.64, 0.11, -0.30]

State recorded log10(EC50) for all listed molecules.
1. Nc1nc2c(ncn2[C@@H]2O[C@@H]3COP(=O)(O)O[C@H]4[C@@H](O)[C@H](n5cnc6c(N)ncnc65)O[C@@H]4COP(=O)(O)O[C@@H]2[C@@H]3O)c(=O)[nH]1 [2′3′-cGAMP, reference compound]
2. CCC(C)(C)C(=O)OCOP1(=O)CO[C@H]2[C@@H](F)[C@H](n3cnc4c(N)ncnc43)O[C@@H]2COP(=O)(OCOC(=O)C(C)(C)CC)O[C@H]2[C@@H](F)[C@H](n3cnc4c(N)ncnc43)O[C@@H]2CO1 (single isomer, unassigned) [Compound 44c]

### Response
1: 2.21; 2: 0.23

* * *

Tested on: peripheral blood mononuclear cell (PBMC)
protocolSummary: Peripheral blood mononuclear cell assay (cytokine levels)
Assay type: cell-based
runParameters: 1 h with compound, wash, 15 hour incubation, average of one to four donors, read-out: PBMC EC50 IFN-γ
# note: boundary value 100 nM maps to N; EC50 below it maps to Y

• Nc1ncnc2c1ncn2[C@@H]1O[C@@H]2COP(=O)(S)O[C@H]3[C@@H](F)[C@H](n4cnc5c(N)ncnc54)O[C@@H]3COP(=O)(O)CO[C@H]2[C@H]1F (single isomer, unassigned) [Compound 11b] = N
• Nc1ncnc2c1ncn2[C@@H]1O[C@@H]2COP(=O)(S)O[C@H]3[C@@H](F)[C@H](n4cnc5c(N)ncnc54)O[C@@H]3COP(=O)(O)CO[C@H]2[C@H]1F (single isomer, unassigned) [Compound 11a] = N
• CCCCCCCCCC(=O)OCSP1(=O)OC[C@H]2O[C@@H](n3cnc4c(N)ncnc43)[C@H](F)[C@@H]2OCP(=O)(O)OC[C@H]2O[C@@H](n3cnc4c(N)ncnc43)[C@H](F)[C@@H]2O1 (single isomer, unassigned) [Compound 36a] = N
• CC(C)(C)C(=O)OCOP1(=O)CO[C@H]2[C@@H](F)[C@H](n3cnc4c(N)ncnc43)O[C@@H]2COP(=O)(OCOC(=O)C(C)(C)C)O[C@H]2[C@@H](F)[C@H](n3cnc4c(N)ncnc43)O[C@@H]2CO1 (single isomer, unassigned) [Compound 41c] = Y
• CC1(C(=O)OCOP2(=O)CO[C@H]3[C@@H](F)[C@H](n4cnc5c(N)ncnc54)O[C@@H]3COP(=O)(OCOC(=O)C3(C)CCCCC3)O[C@H]3[C@@H](F)[C@H](n4cnc5c(N)ncnc54)O[C@@H]3CO2)CCCCC1 (mixture of isomers) [Compound 45b] = Y

### Prompt For CCCCCCCCCC(=O)OCSP1(=O)OC[C@H]2O[C@@H](n3cnc4c(N)ncnc43)[C@H](F)[C@@H]2OCP(=O)(O)OC[C@H]2O[C@@H](n3cnc4c(N)ncnc43)[C@H](F)[C@@H]2O1 (single isomer, unassigned) [Compound 36b] , is the recorded EC50 below the cut-off of 100 nM?
### Response N

### Prompt For CCCCCCCCCCCCOC(=O)OCSP1(=O)OC[C@H]2O[C@@H](n3cnc4c(N)ncnc43)[C@H](F)[C@@H]2OCP(=O)(O)OC[C@H]2O[C@@H](n3cnc4c(N)ncnc43)[C@H](F)[C@@H]2O1 (stereo partly shown) [Compound 34b] , is the recorded EC50 below the cut-off of 100 nM?
### Response N

### Prompt For CC(C)OC(=O)OCOP1(=O)CO[C@H]2[C@@H](F)[C@H](n3cnc4c(N)ncnc43)O[C@@H]2COP(=O)(OCOC(=O)OC(C)C)O[C@H]2[C@@H](F)[C@H](n3cnc4c(N)ncnc43)O[C@@H]2CO1 (single isomer, unassigned) [Compound 42c] , is the recorded EC50 below the cut-off of 100 nM?
### Response N

### Prompt For CC1(C(=O)OCOP2(=O)CO[C@H]3[C@@H](F)[C@H](n4cnc5c(N)ncnc54)O[C@@H]3COP(=O)(OCOC(=O)C3(C)CCCCC3)O[C@H]3[C@@H](F)[C@H](n4cnc5c(N)ncnc54)O[C@@H]3CO2)CCCCC1 (single isomer, unassigned) [Compound 45c] , is the recorded EC50 below the cut-off of 100 nM?
### Response N
